Tested on: CCRIS mutagenicity, Ames/micronucleus/aberration tests
Test: CCRIS mutagenicity studies
Conditions: Test System: Ames Salmonella typhimurium; Strain/Indicator: TA102; Metabolic Activation: None; Method: Preincubation
Active and inactive are the calls of the source. The rule behind the calls is not given here.
The categories you may choose from are active, inactive

Some solved entries appear below for comparison.
- compound.structure.string: "O=C1C=CC(=O)c2ccccc21"
  assayed.target: "CCRIS mutagenicity, Ames/micronucleus/aberration tests"
  assigned.class: "inactive"
- compound.structure.string: "O=C(O[C@@H]1Cc2c(O)cc(O)cc2O[C@@H]1c1cc(O)c(O)c(O)c1)c1cc(O)c(O)c(O)c1"
  assayed.target: "CCRIS mutagenicity, Ames/micronucleus/aberration tests"
  assigned.class: "inactive"
- compound.structure.string: "CCCCNC(=O)c1cc(N)ccc1OC1CCCCC1"
  assayed.target: "CCRIS mutagenicity, Ames/micronucleus/aberration tests"
  assigned.class: "inactive"
- compound.structure.string: "Nc1ccc(-c2ccc(N)cc2)cc1"
  assayed.target: "CCRIS mutagenicity, Ames/micronucleus/aberration tests"
  assigned.class: "inactive"

Task item: // param item: Nc1cc([N+](=O)[O-])ccc1-c1ccc([N+](=O)[O-])cc1 ; yields the recorded call
Reply: active

Task item: // param item: O=c1oc2c(O)c(O)cc3c(=O)oc4c(O)c(O)cc1c4c23 ; yields the recorded call
Reply: inactive

Task item: // param item: CN(C)c1ccc(C(=C2C=CC(=[N+](C)C)C=C2)c2ccccc2Cl)cc1 ; yields the recorded call
Reply: inactive

====

Test system: CCRIS mutagenicity, Ames/micronucleus/aberration tests
Assay: CCRIS mutagenicity studies
Conditions: Test System: AMES SALMONELLA TYPHIMURIUM; Strain/Indicator: TA2638; Metabolic Activation: NONE; Method: STANDARD PLATE
Activity calls are given as the source filed them. How the calls were made is not given here.
The categories you may choose from are active, inactive

Some solved entries appear below for comparison.
- compound.structure.string: "CC(=O)CC(=O)Nc1ccc(C)cc1"
  assigned.class: "inactive"
- compound.structure.string: "O=C(O)c1cn(C2CC2)c2cc(N3CCNCC3)c(F)cc2c1=O"
  assigned.class: "active"
- compound.structure.string: "O=CCCCC=O"
  assigned.class: "active"
- compound.structure.string: "NNc1ccccc1"
  assigned.class: "active"
- compound.structure.string: "C[n+]1c2ccccc2nc2ccccc21"
  assigned.class: "inactive"

Task item: // param item: Oc1cccc(O)c1O ; yields the recorded call
Reply: active

Task item: // param item: CC(Br)Br ; yields the recorded call
Reply: inactive

====

Tested on: CCRIS mutagenicity, Ames/micronucleus/aberration tests
Test: CCRIS mutagenicity studies
Conditions: Test System: AMES SALMONELLA TYPHIMURIUM; Strain/Indicator: TA100; Metabolic Activation: HAMSTER, LIVER, S-9, AROCLOR 1254 (10%); Method: PREINCUBATION
Text: The CCRIS database contains chemical records with carcinogenicity, mutagenicity, tumor promotion, and tumor inhibition test results. It was developed by the National Cancer Institute (NCI). Data are derived from studies cited in primary journals, current awareness tools, NCI reports, and other sources. Test results have been reviewed by experts in carcinogenesis and mutagenesis. CCRIS provides historical information from the years 1985 - 2011. It is no longer updated. […]
Activity calls are given as the source filed them. No rule for the calls is given here.
The categories you may choose from are active, inactive

Task item: // param item: C[CH2][Pb]([Cl])([CH2]C)[CH2]C ; yields the recorded call
Reply: inactive

Task item: // param item: CCCCC(CC)COC(=O)c1ccccc1C(=O)O (stereo unspecified) ; yields the recorded call
Reply: inactive

Task item: // param item: CC(CC(=O)O)C(=O)O (stereo unspecified) ; yields the recorded call
Reply: inactive

Task item: // param item: CCCCCCOC(=O)c1ccccc1C(=O)OCCCCCC ; yields the recorded call
Reply: inactive

Task item: // param item: COc1cc(-c2ccc(N/N=C3\C=C(S(=O)(=O)O)c4ccccc4C3=O)c(OC)c2)ccc1N/N=C1/C=C(S(=O)(=O)O)c2ccccc2C1=O ; yields the recorded call
Reply: inactive

Task item: // param item: ClC(Cl)(Cl)C1CO1 (stereo unspecified) ; yields the recorded call
Reply: active
